# systemTested: T1, Recombinant mouse MMR (R&D systems) (mouse, UniProt Q61830 20-1388)
# T1 construct: Antigen of the PE-ELISA and the SPR; also called mMMR; recombinant mMMR
# T1 sequence: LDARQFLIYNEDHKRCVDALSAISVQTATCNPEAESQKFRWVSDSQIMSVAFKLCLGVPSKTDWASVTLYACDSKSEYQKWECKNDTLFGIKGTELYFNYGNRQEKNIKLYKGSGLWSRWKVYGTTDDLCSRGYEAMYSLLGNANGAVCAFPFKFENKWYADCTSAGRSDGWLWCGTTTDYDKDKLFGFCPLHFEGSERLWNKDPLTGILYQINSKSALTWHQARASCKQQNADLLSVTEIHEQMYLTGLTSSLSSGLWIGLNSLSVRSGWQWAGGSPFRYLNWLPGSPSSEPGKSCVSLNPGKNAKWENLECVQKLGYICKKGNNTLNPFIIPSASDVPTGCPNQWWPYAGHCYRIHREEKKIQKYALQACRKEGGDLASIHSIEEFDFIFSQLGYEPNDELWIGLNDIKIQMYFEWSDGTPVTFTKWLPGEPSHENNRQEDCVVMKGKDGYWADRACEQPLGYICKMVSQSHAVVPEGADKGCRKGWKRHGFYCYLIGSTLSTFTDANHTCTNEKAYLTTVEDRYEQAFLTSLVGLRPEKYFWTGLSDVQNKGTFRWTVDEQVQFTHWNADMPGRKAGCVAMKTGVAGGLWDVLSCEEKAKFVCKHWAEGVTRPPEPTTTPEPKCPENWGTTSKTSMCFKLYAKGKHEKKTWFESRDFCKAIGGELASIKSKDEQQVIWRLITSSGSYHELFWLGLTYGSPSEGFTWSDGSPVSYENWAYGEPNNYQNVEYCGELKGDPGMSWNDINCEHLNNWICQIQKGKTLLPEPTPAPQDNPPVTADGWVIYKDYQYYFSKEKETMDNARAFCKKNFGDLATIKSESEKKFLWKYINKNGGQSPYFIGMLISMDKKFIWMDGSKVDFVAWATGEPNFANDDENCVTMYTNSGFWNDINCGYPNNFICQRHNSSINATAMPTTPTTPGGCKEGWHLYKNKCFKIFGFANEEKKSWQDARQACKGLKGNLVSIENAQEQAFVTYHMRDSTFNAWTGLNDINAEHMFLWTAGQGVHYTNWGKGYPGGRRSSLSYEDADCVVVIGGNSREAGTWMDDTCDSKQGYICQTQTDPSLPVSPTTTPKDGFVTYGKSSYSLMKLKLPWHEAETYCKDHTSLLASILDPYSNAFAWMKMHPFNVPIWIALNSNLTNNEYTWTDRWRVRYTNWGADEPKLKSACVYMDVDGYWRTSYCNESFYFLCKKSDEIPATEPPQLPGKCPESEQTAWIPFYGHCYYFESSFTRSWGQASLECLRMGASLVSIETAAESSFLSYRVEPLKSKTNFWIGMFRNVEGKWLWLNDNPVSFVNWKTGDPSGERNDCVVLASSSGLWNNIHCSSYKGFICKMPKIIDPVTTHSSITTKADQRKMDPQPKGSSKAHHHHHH
# protocol: SPR, BIAcore T100; mouse MMR on CM5 chip, sdAb as analyte
# Method: Affinity analysis was performed using a BIAcore™ T100 (GE Healthcare) with HEPES-buffered saline running buffer (10 mM HEPES with 0.15 M NaCl, 3.4 mM EDTA and 0.005% surfactant P20 at pH 7.4). MRR was immobilized on a CM5 chip in acetate buffer 50 mM (pH 5.0), resulting in 2100 RU MMR coated on the chip. […] The kinetic and equilibrium parameters (kd, ka and KD) values were calculated from the combined sensogram of all concentrations using BIAcore™ T100 evaluation software 2.02 (GE Healthcare). […]
Parameter: kon. Scope: all listed entries.
State just the number; it will be interpreted in M⁻¹ s⁻¹.

NbhmMMRm22.84 (VHH, Produced from pMECS with C-terminal HA and 6xHis tag) VHH: QVQLQESGGGLVQPGGSLRLSCAASGRTFSNYVNYAMGWFRQFPGKEREFVASISWSSVTTYYADSVKGRFTISRDNAKNTVYLQMNSLKPEDTAVYYCAAHLAQYSDYAYRDPHQFGAWGQGTQVTVSS | 30000
NbhmMMRm24.31 (VHH, Produced from pMECS with C-terminal HA and 6xHis tag) VHH: QVQLQESGGGLVQPGGSLRLSCTATGFTLKNHHIGWLRQAPGKEREGVASINSSGGSTNYADSVQGRFTISRDNAKNTVFLQMNSLKSEDTAVYYCARLRRYYGLNLDPGSYDYWGQGTQVTVSS | 28000
NbhmMMRm3.49 (VHH, Produced from pMECS with C-terminal HA and 6xHis tag; also called NbhMMRm3.49) VHH: QVQLQESGGGLVQPGGSLRLSCAASGFSLDYYAIGWFRQAPGKEREGISCISYKGGSTTYADSVKGRFTISKDNAKNTAYLQMNSLKPEDTGIYSCAAGFVCYNYDYWGQGTQVTVSS | 290000

Identify measured kon associated with NbhmMMRm14.4 (VHH, Produced from pMECS with C-terminal HA and 6xHis tag) VHH: QVQLQESGGGLVQAGDSLRLSCAASGRTFSINYMGWYRQAPGKQRELVAAITSGSGSTNYADSVKGRFTISRDNAKNTMYLQMNSLKPEDTAVYYCNADMDSSLSGGYVDVWGQGTQVTVSS
33000
